Ref: patent US20240294572A1

Test system: human red blood cells (hRBCs)
Assay type: cell-based
Details: red cells of human, 1 h
Residues, ends and D or L forms follow the SMILES beside them. *: point of attachment. Myristoyl = CCCCCCCCCCCCCC(=O)*; Octanoyl = CCCCCCCC(=O)*; Hexanoyl = CCCCCC(=O)*
assayEndpoint: HC50

The following compounds have reported results that may help.
# compound, HC50
records = [
    ("CCCCCCCC(=O)N[C@@H](CCCCN)C(=O)N[C@@H](CCCNC(=N)N)C(=O)N[C@H](C(=O)N[C@@H](Cc1c[nH]c2ccccc12)C(=O)N[C@@H](CCC(N)=O)C(=O)N[C@@H](CCCNC(=N)N)C(=O)N[C@H](C(=O)N[C@@H](CCCCN)C(=O)N[C@@H](CC(=O)O)C(=O)N[C@@H](Cc1ccccc1)C(=O)N[C@@H](CC(C)C)C(=O)N[C@@H](CCCNC(=N)N)C(N)=O)[C@@H](C)CC)[C@@H](C)CC [Peptide C8-KR12] (Octanoyl-KRIWQRIKDFLR-NH2)", "<25 µM"),
    ("CCCCCC(=O)N[C@@H](CCCCN)C(=O)N[C@@H](CCCNC(=N)N)C(=O)N[C@H](C(=O)N[C@@H](Cc1c[nH]c2ccccc12)C(=O)N[C@@H](CCC(N)=O)C(=O)N[C@@H](CCCNC(=N)N)C(=O)N[C@H](C(=O)N[C@@H](CCCCN)C(=O)N[C@@H](CC(=O)O)C(=O)N[C@@H](Cc1ccccc1)C(=O)N[C@@H](CC(C)C)C(=O)N[C@@H](CCCNC(=N)N)C(N)=O)[C@@H](C)CC)[C@@H](C)CC [Peptide C6-KR12] (Hexanoyl-KRIWQRIKDFLR-NH2)", "25 µM"),
]

(Q) Recorded HC50 for CCCCCCCCCCCCCC(=O)N[C@@H](CCCCN)C(=O)N[C@@H](CCCNC(=N)N)C(=O)N[C@H](C(=O)N[C@@H](Cc1c[nH]c2ccccc12)C(=O)N[C@@H](CCC(N)=O)C(=O)N[C@@H](CCCNC(=N)N)C(=O)N[C@H](C(=O)N[C@@H](CCCCN)C(N)=O)[C@@H](C)CC)[C@@H](C)CC [Peptide C14-KR8] (Myristoyl-KRIWQRIK-NH2) with human red blood cells (hRBCs), please?
(A) <25 µM

====

Assay: In vivo toxicity
Set-up: species or system C57BL/6 mice
Details: female, C57BL/6, mouse, in vivo, ip, C57BL/6 mice; read-out: maximal tolerated dose (MTD)
Non-standard residues stand in square brackets, D forms with d. Residues, ends and D or L forms follow the SMILES beside them. *: point of attachment. Decanoyl = CCCCCCCCCC(=O)*
assayEndpoint: MTD at 5 days

(Q) What value of MTD at 5 days has been recorded for this entry: CCCCCCCCCC(=O)N[C@H](CCCCN)C(=O)N[C@H](CCCNC(=N)N)C(=O)N[C@@H](C(=O)N[C@H](Cc1c[nH]c2ccccc12)C(=O)N[C@H](CCC(N)=O)C(=O)N[C@H](CCCNC(=N)N)C(=O)N[C@@H](C(=O)N[C@H](CCCCN)C(N)=O)[C@H](C)CC)[C@H](C)CC [Peptide C10-KR8d] (Decanoyl-[dK][dR][dI][dW][dQ][dR][dI][dK]-NH2)
(A) ≥ 20 mg/kg

====

Test system: S. aureus Newman
Type: cell-based
Method: The antibacterial activity of peptides was evaluated using a standard broth microdilution protocol (Clinical Laboratories Standards Institute (CLSI): M07-A10. Methods for Dilution Antimicrobial Susceptibility Tests for Bacteria that grow aerobically; Approved Standard, Tenth Edition, 2015) with minor modifications as described (Mishra, et al. (2019) Proc. Natl. Acad. Sci., 116:13517-13522). In brief, peptides (10 μL per well) with 2-fold dilutions were made in 96-well polystyrene microplates. […]
Non-standard residues stand in square brackets, D forms with d. Residues, ends and D or L forms follow the SMILES beside them. *: point of attachment. Decanoyl = CCCCCCCCCC(=O)*; Octanoyl = CCCCCCCC(=O)*
assayEndpoint: Minimal inhibitory concentration, Newman (µM)
Number only, in µM; omit the unit.

# compound, Minimal inhibitory concentration, Newman (µM)
rows = [
    ("CCCCCCCCCC(=O)N[C@H](CCCCN)C(=O)N[C@H](CCCNC(=N)N)C(=O)N[C@@H](C(=O)N[C@H](Cc1c[nH]c2ccccc12)C(=O)N[C@H](CCC(N)=O)C(=O)N[C@H](CCCNC(=N)N)C(=O)N[C@@H](C(=O)N[C@H](CCCCN)C(N)=O)[C@H](C)CC)[C@H](C)CC [Peptide C10-KR8d] (Decanoyl-[dK][dR][dI][dW][dQ][dR][dI][dK]-NH2)", 1.6),
]

(Q) What value of Minimal inhibitory concentration, Newman has been recorded for this entry: CCCCCCCCCC(=O)N[C@@H](CCCCN)C(=O)N[C@@H](CCCNC(=N)N)C(=O)N[C@H](C(=O)N[C@@H](Cc1c[nH]c2ccccc12)C(=O)N[C@@H](CCC(N)=O)C(=O)N[C@@H](CCCNC(=N)N)C(=O)N[C@H](C(=O)N[C@@H](CCCCN)C(N)=O)[C@@H](C)CC)[C@@H](C)CC [Peptide C10-KR8] (Decanoyl-KRIWQRIK-NH2)
(A) 3.1

(Q) What value of Minimal inhibitory concentration, Newman has been recorded for this entry: CCCCCCCC(=O)N[C@H](CCCCN)C(=O)N[C@H](CCCNC(=N)N)C(=O)N[C@@H](C(=O)N[C@H](Cc1c[nH]c2ccccc12)C(=O)N[C@H](CCC(N)=O)C(=O)N[C@H](CCCNC(=N)N)C(=O)N[C@@H](C(=O)N[C@H](CCCCN)C(=O)N[C@H](CC(=O)O)C(=O)N[C@H](Cc1ccccc1)C(N)=O)[C@H](C)CC)[C@H](C)CC [Peptide C8-KR10d] (Octanoyl-[dK][dR][dI][dW][dQ][dR][dI][dK][dD][dF]-NH2)
(A) 3.1

(Q) What value of Minimal inhibitory concentration, Newman has been recorded for this entry: CCCCCCCC(=O)N[C@@H](CCCCN)C(=O)N[C@@H](CCCNC(=N)N)C(=O)N[C@H](C(=O)N[C@@H](Cc1c[nH]c2ccccc12)C(=O)N[C@@H](CCC(N)=O)C(=O)N[C@@H](CCCNC(=N)N)C(=O)N[C@H](C(=O)N[C@@H](CCCCN)C(=O)N[C@@H](CC(=O)O)C(=O)N[C@@H](Cc1ccccc1)C(N)=O)[C@@H](C)CC)[C@@H](C)CC [Peptide C8-KR10] (Octanoyl-KRIWQRIKDF-NH2)
(A) 6.2
